Origin of values: paper PMC11648681

# TEST PROTOCOL: CCK-8 cell viability of THP-1 cells after 48 h compound treatment in HaCaT/THP-1 co-culture
# Assay type: cell-based, human
# ASSAY SETUP: human, THP-1 cells in co-culture with HaCaT cells, 1.95312 μg/mL, 48 h, THP-1, individual replicate values

# COMPOUND, UNIT ABBREVIATION, viability at 48 h, 1.95312 μg/mL
data = [
    ("OCC(O)CO", "%", 93.5),
    ("O=c1c(-c2ccccc2)c1-c1ccccc1", "%", 124),
    ("N#CCCC(Br)(C#N)CBr (stereo not drawn)", "%", 97.1),
    ("CC(C)(C)c1cc(O)ccc1O [THBQ, Tert-butylhydroquinone]", "%", 94.8),
    ("O=CCc1ccccc1", "%", 85.6),
    ("Sc1nc2ccccc2s1", "%", 76.6),
]

* * *

# Test system: THP-1 cells
# TEST PROTOCOL: CCK-8 cell viability of THP-1 cells after 48 h compound treatment in HaCaT/THP-1 co-culture
# Assay type: cell-based, human
# ASSAY SETUP: 31.25 μg/mL, 48 h, THP-1, individual replicate values
# Protocol: The co-culture system was set up according to the following described method. […] THP-1 cells were collected, centrifuged, and re-suspended in fresh RPMI-1640 medium supplemented with 10% FBS at 2 × 10^6 cells/mL. […] After 48 h of treatment, the treated cells were collected 100 μL cells per well. […] THP-1 cell viability was determined using standard calculation methods. The cytotoxicity of 15 test compounds listed in Table 1 was assessed using THP-1 cells across a concentration range of 1,000 to 3.9 μg/mL. […]
A collection of compounds and their measured Cell viability

# COMPOUND, Cell viability (%)
rows = [
    ("O=CCc1ccccc1", 14.7368),
    ("CC(C)CCCC(C)CCCC(C)CCCCC(C)CCCC(C)CCCC(C)C (stereo not shown)", 81.4095),
    ("O=[N+]([O-])c1ccc(Cl)c([N+](=O)[O-])c1", 7.274),
    ("O=c1c(-c2ccccc2)c1-c1ccccc1", 15.5674),
]

* * *

# Test system: THP-1 cells
# TEST PROTOCOL: CCK-8 cell viability of THP-1 cells after 48 h compound treatment in HaCaT/THP-1 co-culture
# Assay type: cell-based, human
# ASSAY SETUP: 7.8125 μg/mL, 48 h, THP-1, individual replicate values
Cell viability strictly less than 90% = Fulfilled. Otherwise Not fulfilled.

# MOLECULE, TARGET OR TEST SYSTEM, GROUP
measured = [
    ("CC(C)CCCC(C)CCCC(C)CCCCC(C)CCCC(C)CCCC(C)C (stereo not drawn)", "THP-1 cells", "Fulfilled"),
    ("O=CCc1ccccc1", "THP-1 cells", "Fulfilled"),
    ("Sc1nc2ccccc2s1", "THP-1 cells", "Fulfilled"),
    ("N#CCCC(Br)(C#N)CBr (stereo not drawn)", "THP-1 cells", "Fulfilled"),
    ("O=[N+]([O-])c1ccc(Cl)c([N+](=O)[O-])c1", "THP-1 cells", "Fulfilled"),
    ("CC(C)(C)c1cc(O)ccc1O [THBQ, Tert-butylhydroquinone]", "THP-1 cells", "Not fulfilled"),
    ("O=c1c(-c2ccccc2)c1-c1ccccc1", "THP-1 cells", "Fulfilled"),
    ("Oc1cccc(O)c1", "THP-1 cells", "Not fulfilled"),
]

* * *

# TEST PROTOCOL: CCK-8 cell viability of THP-1 cells after 48 h compound treatment in HaCaT/THP-1 co-culture
# Type: cell-based, human
# ASSAY SETUP: human, THP-1 cells in co-culture with HaCaT cells, 0.976563 μg/mL, 48 h, THP-1, individual replicate values
This section presents compounds with their documented viability at 48 h, 0.976563 μg/mL values.

# COMPOUND, UNIT ABBREVIATION, viability at 48 h, 0.976563 μg/mL
data = [
    ("OCC(O)CO", "%", 87.7),
    ("CC(C)(C)c1cc(O)ccc1O [THBQ, Tert-butylhydroquinone]", "%", 95.9),
    ("O=CCc1ccccc1", "%", 84.7),
    ("Oc1cccc(O)c1", "%", 86.4),
    ("Sc1nc2ccccc2s1", "%", 80.2),
    ("O=c1c(-c2ccccc2)c1-c1ccccc1", "%", 95.4),
    ("N#CCCC(Br)(C#N)CBr (stereo not shown)", "%", 97),
]

* * *

# System: THP-1 cells
# TEST PROTOCOL: CCK-8 cell viability of THP-1 cells after 48 h compound treatment in HaCaT/THP-1 co-culture
# Type: cell-based, human
# ASSAY SETUP: 125 μg/mL, 48 h, THP-1, individual replicate values

# COMPOUND, Cell viability
measured = [
    ("CC(C)CCCC(C)CCCC(C)CCCCC(C)CCCC(C)CCCC(C)C (centres unmarked) [squalane, Squalane]", "94.8381%"),
    ("Oc1cccc(O)c1 [resorcinol, Resorcinol]", "70.9013%"),
    ("C=CCc1ccc(O)c(OC)c1 [eugenol, Eugenol]", "50.2837%"),
    ("CC(C)(C)c1cc(O)ccc1O [THBQ, Tert-butylhydroquinone]", "34.2837%"),
    ("Sc1nc2ccccc2s1 [2-mercaptobenzothiazole]", "34.9417%"),
]

* * *

# Test system: THP-1 cells
# TEST PROTOCOL: CCK-8 cell viability of THP-1 cells after 48 h compound treatment in HaCaT/THP-1 co-culture
# Assay type: cell-based, human
# ASSAY SETUP: 250 μg/mL, 48 h, THP-1, individual replicate values
Define the label as YES when Cell viability is strictly less than 30% and as NO in all remaining cases.

# COMPOUND, TARGET OR TEST SYSTEM, GROUP
rows = [
    ("C=CCc1ccc(O)c(OC)c1 [eugenol, Eugenol]", "THP-1 cells", "YES"),
    ("CC(C)(C)c1cc(O)ccc1O [THBQ, Tert-butylhydroquinone]", "THP-1 cells", "YES"),
    ("Sc1nc2ccccc2s1 [2-mercaptobenzothiazole]", "THP-1 cells", "YES"),
    ("O=CCc1ccccc1 [phenylacetaldehyde, Phenylacetaldehyde]", "THP-1 cells", "YES"),
    ("CC(C)CCCC(C)CCCC(C)CCCCC(C)CCCC(C)CCCC(C)C (centres unmarked) [squalane, Squalane]", "THP-1 cells", "NO"),
    ("Oc1cccc(O)c1 [resorcinol, Resorcinol]", "THP-1 cells", "NO"),
    ("O=c1c(-c2ccccc2)c1-c1ccccc1 [diphenylcyclopropenone, Diphenylcyclopropenone]", "THP-1 cells", "YES"),
    ("O=[N+]([O-])c1ccc(Cl)c([N+](=O)[O-])c1 [DNCB, 2,4-dinitrochlorobenzene]", "THP-1 cells", "YES"),
]

* * *

compounds and their reported viability at 48 h, 0.976563 μg/mL
# TEST PROTOCOL: CCK-8 cell viability of THP-1 cells after 48 h compound treatment in HaCaT/THP-1 co-culture
# Type: cell-based, human
# ASSAY SETUP: human, 0.976563 μg/mL, 48 h, THP-1, individual replicate values

# COMPOUND, UNIT ABBREVIATION, viability at 48 h, 0.976563 μg/mL
records = [
    ("O=[N+]([O-])c1ccc(Cl)c([N+](=O)[O-])c1 [DNCB, 2,4-dinitrochlorobenzene]", "%", 102),
    ("C=CCc1ccc(O)c(OC)c1 [eugenol, Eugenol]", "%", 96.1),
]

* * *

# System: THP-1 cells
# TEST PROTOCOL: CCK-8 cell viability of THP-1 cells after 48 h compound treatment in HaCaT/THP-1 co-culture
# Type: cell-based, human
# ASSAY SETUP: 500 μg/mL, 48 h, THP-1, individual replicate values
# Procedure: The co-culture system was set up according to the following described method. […] THP-1 cells were collected, centrifuged, and re-suspended in fresh RPMI-1640 medium supplemented with 10% FBS at 2 × 10^6 cells/mL. […] After 48 h of treatment, the treated cells were collected 100 μL cells per well. […] THP-1 cell viability was determined using standard calculation methods. The cytotoxicity of 15 test compounds listed in Table 1 was assessed using THP-1 cells across a concentration range of 1,000 to 3.9 μg/mL. […]

# COMPOUND, Cell viability (%)
records = [
    ("O=[N+]([O-])c1ccc(Cl)c([N+](=O)[O-])c1", 10.9865),
    ("N#CCCC(Br)(C#N)CBr (stereo not shown)", 12.3985),
    ("O=CCc1ccccc1", 22.2782),
    ("CC(C)(C)c1cc(O)ccc1O [THBQ, Tert-butylhydroquinone]", 18.8014),
]
